B1: VH:VL chains; a variant is named by its letters at X, in order (parent)
chain 1: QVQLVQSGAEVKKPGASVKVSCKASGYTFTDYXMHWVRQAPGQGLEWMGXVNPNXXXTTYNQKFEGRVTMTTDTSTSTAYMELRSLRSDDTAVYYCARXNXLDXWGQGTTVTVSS
chain 2: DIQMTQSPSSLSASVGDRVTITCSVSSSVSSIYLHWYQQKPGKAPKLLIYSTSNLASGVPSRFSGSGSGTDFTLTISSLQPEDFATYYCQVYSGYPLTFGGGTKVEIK

- Variants of: B1
- assay remarks: yeast display scFab, FACS + sequencing
property label: non-specific binding call

Answered examples (8):
1. DARENAGY ... no binding
2. VATGDDGV ... no binding
3. YEGGGSAV ... no binding
4. YRGRASVV ... binds
5. SETGGDWV ... no binding
6. FGATSVSF ... binds
7. VEGGGAVV ... no binding
8. VRAGADGV ... no binding

Consider the record given below.
Requested field: non-specific binding call. Item: FGAAAVGD
binds
